Sourced from patent US20230357429A1

Below, each entry is listed with its recorded log10 of IC50.
Target: T1, TBD-21 (HC F108A)
T1 construct: Fab; also called HC F108A mutant
T1 sequence (VH, as listed by the source, chain 1 of 2): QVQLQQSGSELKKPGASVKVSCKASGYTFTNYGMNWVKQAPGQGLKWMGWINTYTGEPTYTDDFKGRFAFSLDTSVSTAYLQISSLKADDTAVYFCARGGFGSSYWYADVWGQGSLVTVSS
T1 sequence (VL, as listed by the source, chain 2 of 2): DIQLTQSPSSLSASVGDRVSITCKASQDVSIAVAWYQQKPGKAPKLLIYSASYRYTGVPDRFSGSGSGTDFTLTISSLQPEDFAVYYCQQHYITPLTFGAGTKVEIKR
Assay: competition ELISA, peptide vs Fab binding to captured biotin-TROP2
Where no end group is shown, it is not given here.
Note: values are log10 of IC50 expressed in nM.

Here is how some binders turned out for log10 of IC50.
binder | log10 of IC50
VDFCKIYSWPVCHQ (cysteine pairing not given here; also: biotinylated (site not given here)) [Peptide-25] | 3.81
VDFCGLYHWPICYQ (cysteine pairing not given here; also: biotinylated, site not given here) [Peptide-8] | 2.79

// query Supply measured log10 of IC50 of IDFCAMYQWPICDT (cysteine pairing not given here; also: biotinylated (site not given here)) [Peptide-1] in your reply.
// result 3.46

// query Check the records and state log10 of IC50 for IDFCAVYKWPVCQV (cysteine pairing not given here; also: biotinylated (site not given here)) [Peptide-2]
// result 3.77

// query Look up and state reported log10 of IC50 for IDFCMLYNWPICAG (cysteine pairing not given here; also: biotinylated, site not given here) [Peptide-3]
// result 3.42
